Hey, just so you know, these numbers are from ChEMBL document CHEMBL1128288.

Test system: Staphylococcus epidermidis
Experiment: In vitro antibacterial activity measured as minimum inhibitory concentration was evaluated on Staphylococcus epidermidis ATCC 155-1 (Se).
Type: functional
Conditions: Staphylococcus epidermidis, ATCC 155-1; read-out: MIC
Consider the cut-off 0.2 µg/mL. If the recorded MIC is strictly smaller, the label is satisfied; if not, the label is not satisfied.

>>> qualitativelabel("C[C@H]1[C@@H](N)CN1c1c(F)cc2c(=O)c(C(=O)O)cn(C3CC3)c2c1F")
"not satisfied"
>>> qualitativelabel("C[C@H]1[C@H](N)CN1c1nc2c(cc1F)c(=O)c(C(=O)O)cn2-c1ccc(F)cc1F (single isomer, unassigned)")
"satisfied"
>>> qualitativelabel("CCn1cc(C(=O)O)c(=O)c2c(N)c(F)c(N3C[C@H](N)[C@H]3C)c(F)c21")
"not satisfied"
>>> qualitativelabel("C[C@@H]1[C@@H](N)CN1c1c(F)cc2c(=O)c(C(=O)O)cn(C3CC3)c2c1Cl")
"not satisfied"
>>> qualitativelabel("C[C@H](N)C(=O)N[C@@H]1CN(c2cc3c(cc2F)c(=O)c(C(=O)O)cn3-c2ccc(F)cc2F)[C@H]1C")
"not satisfied"
>>> qualitativelabel("C[C@H]1[C@H](N)CN1c1nc2c(cc1F)c(=O)c(C(=O)O)cn2C1CC1 (single isomer, unassigned)")
"satisfied"
>>> qualitativelabel("CC1COc2c(N3CC(C)(N)C3)c(F)cc3c(=O)c(C(=O)O)cn1c23 (single isomer, unassigned)")
"not satisfied"
>>> qualitativelabel("C[C@@H]1[C@@H](NC(=O)[C@@H](C)N)CN1c1nc2c(cc1F)c(=O)c(C(=O)O)cn2C1CC1")
"not satisfied"
>>> qualitativelabel("C[C@@H]1[C@@H](N)CN1c1c(F)cc2c(=O)c(C(=O)O)cn(-c3ccc(F)cc3)c2c1F")
"not satisfied"
>>> qualitativelabel("C[C@H]1[C@H](N)CN1c1c(F)cc2c(=O)c(C(=O)O)cn(C3CC3)c2c1Cl (single isomer, unassigned)")
"satisfied"
>>> qualitativelabel("C[C@H](N)C(=O)N[C@@H]1CN(c2nc3c(cc2F)c(=O)c(C(=O)O)cn3C2CC2)[C@H]1C")
"not satisfied"
>>> qualitativelabel("CC(C)C[C@H](N)C(=O)N[C@@H]1CN(c2nc3c(cc2F)c(=O)c(C(=O)O)cn3C2CC2)[C@H]1C")
"not satisfied"
>>> qualitativelabel("C[C@H]1COc2c(N3CC(N)C3)c(F)cc3c(=O)c(C(=O)O)cn1c23")
"satisfied"
>>> qualitativelabel("CC1C(N)CN1c1c(F)cc2c(=O)c(C(=O)O)cn3c2c1OC[C@@H]3C (single isomer, unassigned)")
"satisfied"
>>> qualitativelabel("CC1C(N)CN1c1c(F)c(N)c2c(=O)c(C(=O)O)cn(C3CC3)c2c1F (stereo unspecified)")
"satisfied"
>>> qualitativelabel("CC1C(N)CN1c1c(F)cc2c(=O)c(C(=O)O)cn(C3CC3)c2c1Cl (stereo unspecified)")
"satisfied"
>>> qualitativelabel("C[C@@H]1[C@@H](N)CN1c1c(F)c(N)c2c(=O)c(C(=O)O)cn(C3CC3)c2c1F")
"satisfied"
>>> qualitativelabel("C[C@@H]1[C@@H](N)CN1c1nc2c(cc1F)c(=O)c(C(=O)O)cn2-c1ccc(F)cc1F")
"not satisfied"
>>> qualitativelabel("C[C@@H]1[C@@H](N)CN1c1c(F)cc2c(=O)c(C(=O)O)cn(-c3ccc(F)cc3F)c2c1F")
"satisfied"
>>> qualitativelabel("C[C@@H]1[C@@H](N)CN1c1cc2c(cc1F)c(=O)c(C(=O)O)cn2-c1ccc(F)cc1F")
"not satisfied"
>>> qualitativelabel("CCNCC1(C)CN(c2c(F)cc3c(=O)c(C(=O)O)cn4c3c2OC[C@@H]4C)C1")
"not satisfied"
>>> qualitativelabel("C[C@@H]1[C@H](N)CN1c1c(F)cc2c(=O)c(C(=O)O)cn(C3CC3)c2c1F (stereo in doubt; 23)")
"satisfied"
>>> qualitativelabel("C[C@H]1[C@H](N)CN1c1cc2c(cc1F)c(=O)c(C(=O)O)cn2C1CC1 (single isomer, unassigned)")
"satisfied"
>>> qualitativelabel("CCn1cc(C(=O)O)c(=O)c2cc(F)c(N3C[C@H](N)[C@H]3C)c(F)c21")
"not satisfied"
>>> qualitativelabel("C[C@@H]1[C@@H](N)CN1c1cc2c(cc1F)c(=O)c(C(=O)O)cn2C1CC1")
"not satisfied"
>>> qualitativelabel("CCC[C@H](N)C(=O)N[C@@H]1CN(c2cc3c(cc2F)c(=O)c(C(=O)O)cn3-c2ccc(F)cc2F)[C@H]1C")
"not satisfied"
